Experimental system: adenosine A2B receptor (Homo sapiens (Human))
Sequence (P29275 whole entry): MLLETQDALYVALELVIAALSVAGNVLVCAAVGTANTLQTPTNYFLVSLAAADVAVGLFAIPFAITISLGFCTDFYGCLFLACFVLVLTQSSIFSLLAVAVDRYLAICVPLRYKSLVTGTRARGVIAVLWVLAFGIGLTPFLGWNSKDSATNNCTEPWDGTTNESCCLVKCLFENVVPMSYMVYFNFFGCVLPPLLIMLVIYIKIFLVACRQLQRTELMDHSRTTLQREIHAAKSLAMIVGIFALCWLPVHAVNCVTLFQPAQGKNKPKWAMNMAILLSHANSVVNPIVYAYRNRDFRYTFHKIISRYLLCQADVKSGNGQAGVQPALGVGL
Protocol summary: Adenosine receptor activity assay (Table 1), A2B activity
Assay type: biochemical
Test conditions: A2A activity to A2B activity (A2A/A2B)
Property name: Ratio

INSERT INTO results (compound, experimental_system, experimental_value) VALUES
  ('C[C@H](Nc1nc(C(=O)N2CCCC2)c2sccc2n1)c1cncc(F)c1 [Example Z134]', 'adenosine A2B receptor (Homo sapiens (Human))', 72.09),
  ('CCOc1ccc(CNC(=O)c2nc(N[C@@H](C)c3ccccn3)nc3ccsc23)cn1 [Example Z170]', 'adenosine A2B receptor (Homo sapiens (Human))', 1.24),
  ('O=C(c1nc(NCc2cncc(C(F)(F)F)c2)nc2ccsc12)N1CCC1 [Example Z257]', 'adenosine A2B receptor (Homo sapiens (Human))', 9.16),
  ('CC(C)(C)OC(=O)N[C@@H]1CCN(C(=O)c2nc(NCc3cncc(F)c3)nc3ccsc23)C1 [Example Z239]', 'adenosine A2B receptor (Homo sapiens (Human))', 14.97),
  ('C[C@H](Nc1nc(C(=O)NCc2cncc(C#N)c2)c2sccc2n1)c1cccnc1 [Example Z104]', 'adenosine A2B receptor (Homo sapiens (Human))', 0.50),
  ('C[C@@H]1CCN(C(=O)c2nc(N[C@@H](C)c3ccccn3)nc3ccsc23)C1 [Example Z86]', 'adenosine A2B receptor (Homo sapiens (Human))', 4.25);

(I) C[C@H](Nc1nc(C(=O)NCCc2ccc(O)cc2)c2sccc2n1)c1cncc(F)c1 [Example Z340]
(II) COc1cncc(CNc2nc(C(=O)N3CC(O)C3)c3sccc3n2)c1 [Example Z119]
Input: Select one. Lower Ratio: I or II Kindly give the label for the entry you pick.
Output: II
(II: 2.08, I: 95.47)

----------
Reported IC50 values for a set of molecules
Experimental system: adenosine A3 receptor (Homo sapiens (Human), UniProt P0DMS8)
Sequence (P0DMS8 whole entry): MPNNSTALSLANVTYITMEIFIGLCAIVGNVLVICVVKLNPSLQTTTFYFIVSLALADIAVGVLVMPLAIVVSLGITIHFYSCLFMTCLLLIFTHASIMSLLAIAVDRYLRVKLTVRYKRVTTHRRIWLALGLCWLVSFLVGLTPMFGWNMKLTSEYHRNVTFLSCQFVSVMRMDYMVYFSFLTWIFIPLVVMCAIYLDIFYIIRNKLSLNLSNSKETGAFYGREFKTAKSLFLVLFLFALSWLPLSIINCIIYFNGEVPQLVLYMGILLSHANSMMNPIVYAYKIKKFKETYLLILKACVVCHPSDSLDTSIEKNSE
Protocol summary: Adenosine receptor activity assay (Table 1), A3 cAMP
Assay type: cell-based

INSERT INTO measurements (smiles_str, experimental_system, experimental_value) VALUES
  ('CNc1cc2nc(N[C@@H](C)c3ccccn3)nc(C(=O)NCCO)c2s1', 'adenosine A3 receptor (Homo sapiens (Human), UniProt P0DMS8)', '> 500 nM'),
  ('C[C@H](Nc1nc(C(=O)NCCO)c2sccc2n1)c1cncc(Cl)c1', 'adenosine A3 receptor (Homo sapiens (Human), UniProt P0DMS8)', '> 500 nM');

Okay, next one:
Input: Value lookup for IC50; key = `C[C@H](Nc1nc(C(=O)N2CC[C@@H](O)C2)c2sccc2n1)c1cncc(Cl)c1`
Output: > 500 nM

----------
Protocol summary: Hepatocyte (Hep) intrinsic clearance, human
Assay type: in vitro ADME
Test conditions: hepatocytes
Property name: hepatocyte CLint (µL/min/1e6 cells)

INSERT INTO assay_data (compound, property_name, experimental_value) VALUES
  ('C[C@H](Nc1nc(C(=O)N2CC(O)C2)c2sccc2n1)c1ccccn1 [Example Z100]', 'hepatocyte CLint', 1.89);

(1) O=C(c1nc(NCc2cncc(F)c2)nc2ccsc12)N1CC[C@@H](F)C1 [Example Z60]
(2) COC1CN(C(=O)c2nc(N[C@@H](C)c3cncc(F)c3)nc3ccsc23)C1 [Example Z185]
Input: Of the two listed items, which has the higher hepatocyte CLint? First: 1 Second: 2 Kindly give the label for the entry you pick.
Output: 1

(P) C[C@@H]1CCN(C(=O)c2nc(N[C@@H](C)c3cccnc3)nc3ccsc23)C1 [Example Z34]
(Q) COC1CN(C(=O)c2nc(N[C@@H](C)c3ccccn3)nc3ccsc23)C1 [Example Z108]
Input: Of the two listed items, which has the higher hepatocyte CLint? First: P Second: Q Kindly give the label for the entry you pick.
Output: P
(P: 23.5 µL/min/1e6 cells, Q: 5.66 µL/min/1e6 cells)

(1) COC1CN(C(=O)c2nc(N[C@@H](C)c3cccnc3)nc3ccsc23)C1 [Example Z139]
(2) C[C@H](Nc1nc(C(=O)N2CCC2)c2sccc2n1)c1cncc(F)c1 [Example Z164]
(3) C[C@H](Nc1nc(C(=O)N2CCCC2)c2sccc2n1)c1cccc(F)c1 [Example Z125]
(4) O=C(NC1CC(O)C1)c1nc(NCc2cncc(F)c2)nc2ccsc12 (centres unmarked) [Example Z183]
(5) C[C@H](Nc1nc(C(=O)N2CC(O)C2)c2sccc2n1)c1cccnc1 [Example Z138]
Input: rank_up(items): orders items by reported hepatocyte CLint in ascending numerical order. In your reply, arrange the labels in the requested order.
Output: 5, 1, 2, 4, 3
(5: 1.14 µL/min/1e6 cells, 1: 7.67 µL/min/1e6 cells, 2: 13.5 µL/min/1e6 cells, 4: 24.9 µL/min/1e6 cells, 3: 42.8 µL/min/1e6 cells)

Data credit: patent US11254686B1
